Molecular target: CCR2 (Homo sapiens (Human))
Experiment: MCP-1 Receptor Binding Assay in THP-1 Cells
Settings: 0.5 nM 125I labeled MCP-1, 2 hours at 30° C., read-out: Inhibition of MCP-1 Binding IC50 MCP1B
ENDPOINT NAME: pIC50
Value format note: pIC50 is -log10 of concentration (mol/L); just state the number.

CCCC(O)(CCC)[C@H]1CC[C@@H](N2CC(NC(=O)CNc3ncnc4ccc(C(F)(F)F)cc34)C2)CC1 [Example 32] ... 6.16
O=C(CNc1ncnc2ccc(C(F)(F)F)cc12)NC1CN([C@H]2CC[C@@H]([C@@H](O)C3CC3)CC2)C1 [(−) 4] ... 8.10
CCC(O)[C@H]1CC[C@@H](N2CC(NC(=O)CNc3cc(C(F)(F)F)nc4ccc(C(F)(F)F)cc34)C2)CC1 (stereo partly shown) [Example 25] ... 7.00
O=C(CNc1ncnc2ccc(C(F)(F)F)cc12)NC1CN([C@H]2CC[C@@H](C3CCOC(=O)N3)CC2)C1 (stereo partly shown) [Example 17] ... 7.24
O=C(CNc1ncnc2ccc(C(F)(F)F)cc12)NC1CN([C@H]2CC[C@@H](N3CCSCC3)CC2)C1 [Example 133] ... 6.70

Consider CCC(O)[C@H]1CC[C@@H](N2CC(NC(=O)CNc3cnnc4ccc(C(F)(F)F)cc34)C2)CC1 (stereo partly shown) [Example 152] . Its measured pIC50 is 6.28

Consider O=C(CNc1ncnc2ccc(C(F)(F)F)cc12)NC1CN([C@H]2CC[C@@H](CN3CCCCC3=O)CC2)C1 [Example 54] . Its measured pIC50 is 6.14

---

Target: CCR2 (Homo sapiens (Human), UniProt P41597)
Sequence (P41597 whole entry): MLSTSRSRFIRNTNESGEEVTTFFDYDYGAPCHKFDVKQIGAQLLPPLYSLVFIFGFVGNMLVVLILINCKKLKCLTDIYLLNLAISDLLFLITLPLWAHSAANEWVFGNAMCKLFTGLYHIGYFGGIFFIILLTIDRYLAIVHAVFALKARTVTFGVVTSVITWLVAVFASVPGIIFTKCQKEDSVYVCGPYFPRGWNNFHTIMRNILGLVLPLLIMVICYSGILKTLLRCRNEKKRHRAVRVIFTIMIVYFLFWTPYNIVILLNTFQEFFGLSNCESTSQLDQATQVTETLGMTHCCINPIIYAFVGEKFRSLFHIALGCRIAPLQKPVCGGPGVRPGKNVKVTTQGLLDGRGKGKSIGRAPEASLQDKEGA
Test: MCP-1 Receptor Binding Assay in THP-1 Cells;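 also: THP-1 is a human monocytic cell line, and nonspecific binding was defined with 1 µM unlabeled MCP-1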
Settings: 0.5 nM 125I labeled MCP-1, 2 hours at 30° C., read-out: Inhibition of MCP-1 Binding IC50 MCP1B
So basically, if IC50 comes in under 20 nM it's rule met, and if it's 20 nM or more it's rule not met.

Example entries begin here.
CCOC(=O)[C@H]1CC[C@@H](N2CC(NC(=O)CNc3ncnc4ccc(C(F)(F)F)cc34)C2)CC1 ... rule met
O=C(CNc1ncnc2ccc(C(F)(F)F)cc12)N[C@H]1C[C@H](N2CCC(O)(c3cncs3)CC2)C1 ... rule not met
O=C(CNc1ncnc2ccc(C(F)(F)F)cc12)NC1CN(C2CCC([C@@H](O)C3CC3)CC2)C1 (single isomer, unassigned; (+)) [(+) 6] ... rule not met

I'd appreciate it if you could check whether O=C(CNc1ncnc2ccc(C(F)(F)F)cc12)NC1CN([C@H]2CC[C@@H](C3CC=CCO3)CC2)C1 (stereo partly shown) has IC50 smaller than 20 nM. rule met

I'd appreciate it if you could check whether CC[C@@H](O)[C@H]1CC[C@@H](N2CC(NC(=O)CNc3nncc4ccc(C(F)(F)F)cc34)C2)CC1 (stereo in doubt) has IC50 smaller than 20 nM. rule met

I'd appreciate it if you could check whether CC(C)[C@H](O)[C@H]1CC[C@H](N2CC(NC(=O)CNc3nncc4ccc(C(F)(F)F)cc34)C2)CC1 (racemic) has IC50 smaller than 20 nM. rule not met

I'd appreciate it if you could check whether C#CC(O)[C@H]1CC[C@@H](N2CC(NC(=O)CNc3ncnc4ccc(C(F)(F)F)cc34)C2)CC1 (stereo partly shown) has IC50 smaller than 20 nM. rule not met
